I'd be grateful if you could share measured IC50 for these entries.
Target: Botulinum neurotoxin type A (Clostridium botulinum)
Experiment: Inhibition of Clostridium botulinum BoNT/A holotoxin-mediated SNAP-25 cleavage in mouse HBG3 cell-derived motor neurons preincubated for 30 mins followed by intoxication measured after 4 hrs by Western blot method

Param item = CC(CCN(C)CC12CC3CC(CC(C3)C1)C2)Nc1ccnc2cc(Cl)ccc12 (stereo unspecified) ; retrieve measured IC50.
< 10 µM

Param item = CC(=O)O[C@H]1C[C@H]2[C@@H]([C@H](OC(C)=O)C[C@@H]3C[C@H](N)CC[C@@]32C)[C@@H]2CC[C@H]([C@H](C)CCCNCCCCNc3ccnc4ccccc34)[C@@]12C ; retrieve measured IC50.
10 to 20 µM

Param item = N#Cc1ccc(-c2ccc(-c3ccc(CNCCCCCCCCNc4ccnc5ccccc45)cc3)s2)cc1 ; retrieve measured IC50.
10 to 20 µM

Param item = CC(=O)O[C@H]1C[C@H]2[C@@H]([C@H](OC(C)=O)C[C@@H]3C[C@H](N)CC[C@@]32C)[C@@H]2CC[C@H]([C@H](C)CCCNCCCCNc3ccnc4cc(Cl)ccc34)[C@@]12C ; retrieve measured IC50.
10 µM

Param item = CN(CCCCCCCCNc1ccnc2ccccc12)Cc1ccc(-c2ccc(-c3ccc(C#N)cc3)s2)cc1 ; retrieve measured IC50.
5 to 10 µM

Param item = C[C@H](CCCNCCCCNc1ccnc2cc(Cl)ccc12)[C@H]1CC[C@H]2[C@@H]3[C@H](O)C[C@@H]4C[C@H](N)CC[C@]4(C)[C@H]3C[C@H](O)[C@]12C ; retrieve measured IC50.
8 to 16 µM
